# Read-out: Vascular cell adhesion molecule 1 (VCAM1), VCAM1 (gene 7412)
# procedure-text: BSK_LPS_VCAM1: BioMAP Diversity Plus: LPS Assay for Vascular cell adhesion molecule 1 (VCAM1) Biomarker Activity (AID 2283086)
# condition-set: primary human HUVEC with PBMC; actives raise or lower the signal
Active and inactive are the calls of the source. Rule for the calls: active = hit-call score of the fitted dose curve at least 0.9, where 1 is the maximum; inactive = score below 0.9.
Outcome (select one): active, inactive

Worked examples follow.
1) CCCCC(CC)COC(=O)CCCCCCCCC(=O)OCC(CC)CCCC (stereo not given) | inactive
2) COc1ccc2sc(C(=O)Nc3nnn[nH]3)c(OC(C)C)c2c1 | active

Incoming: Lab log entry: C[C@](N)(Cc1ccc(O)c(O)c1)C(=O)O — outcome as called in the assay?
Outgoing: inactive

Incoming: Repeat for the following compound: O=C(O)c1cc(N=Nc2ccc(S(=O)(=O)Nc3ccccn3)cc2)ccc1O
Outgoing: inactive

Incoming: Again, but for CN(C)c1ccc(Cc2ccc(N(C)C)cc2)cc1
Outgoing: inactive

Incoming: Repeat with CCN(C(=O)c1cc(C)cc(OC[C@H](C)Nc2ccncc2)c1)C(C)C
Outgoing: inactive

Incoming: Next entry: CCOc1cccc(-n2cc(C(=O)N3CCN(c4cc(C(=O)O)c5ccccc5c4)CC3)nc2-c2ccc(C)cc2)c1
Outgoing: active

Incoming: Can you check CC(C)(O)c1coc(S(=O)(=O)NC(=O)Nc2c3c(cc4c2CCC4)CCC3)c1 next?
Outgoing: inactive

---

# Read-out: solute carrier (SLC22A1), SLC22A1 (gene 6580)
# procedure-text: LTEA_HepaRG_SLC22A1: Life Technologies and Expression Analysis (LTEA) Assay for solute carrier (SLC22A1) using HepaRG (AID 2283524)
# condition-set: mRNA level, 48 h; actives raise or lower the signal
Calls of active or inactive are those of the source. The calls were made as follows: active = hit-call score of the fitted dose curve at least 0.9, where 1 is the maximum; inactive = score below 0.9.
Field 'call' accepts 1 (yes) (active), 0 (no) (inactive)

A selection of reference data follows.
1. O=C(O)CCN(C1(C(=O)NO)CCCC1)S(=O)(=O)c1ccc(Oc2ccc(F)cc2)cc1 | 0 (no)
2. CCn1nc(Cc2ccccc2)cc1C1CCN(C[C@H]2C[C@H](N(C)[C@@H](C(=O)O)C(C)C)C[C@@H]2c2cccc(F)c2)CC1 | 1 (yes)

Incoming: Dear all, I need the recorded test outcome for CCCCCCCCCCCCCCCO , thank you.
Outgoing: 0 (no)

Incoming: Likewise for On1ccccc1=S ?
Outgoing: 0 (no)

Incoming: Another compound to check: O=C1CCC(N2C(=O)c3ccccc3C2=O)C(=O)N1 (stereo unspecified)
Outgoing: 0 (no)

Incoming: Follow-up entry: CC(O)CN(CCN(CC(C)O)CC(C)O)CC(C)O (stereo unspecified)
Outgoing: 0 (no)

---

# target-system: Cellular tumor antigen p53 (Homo sapiens)
# procedure-text: TOX21_p53_BLA_p5_ratio: Tox21 HCT-116 p53 Agonism Beta-lactamase Assay, Ratio, Phase 5 (AID 2283599)
Records with an inconclusive call do not appear. Activity calls are given as the source filed them. The calls were made as follows: active = hit-call score of the fitted dose curve at least 0.9, where 1 is the maximum; inconclusive = response in the unintended direction; inactive = score below 0.9.
value-type: outcome

1. CC(C)(O)c1coc(S(=O)(=O)NC(=O)Nc2c3c(cc4c2CCC4)CCC3)c1 | inactive
2. On1ccccc1=S | inactive
3. Clc1nc(Cl)c(Cl)c(Cl)c1Cl | inactive

---

# Read-out: solute carrier (SLC22A1), SLC22A1 (gene 6580)
# procedure-text: LTEA_HepaRG_SLC22A1: Life Technologies and Expression Analysis (LTEA) Assay for solute carrier (SLC22A1) using HepaRG (AID 2283524)
# condition-set: mRNA level, 48 h; actives raise or lower the signal
Calls of active or inactive are those of the source. The calls were made as follows: active = hit-call score of the fitted dose curve at least 0.9, where 1 is the maximum; inactive = score below 0.9.
Choose one outcome from this list and give only that: 1 for active, -1 for inactive

Below are worked cases with known answers.
1. C1=CCCC=CCCC=CCC1 | -1
2. O=C(O)c1cc(N=Nc2ccc(S(=O)(=O)Nc3ccccn3)cc2)ccc1O | -1
3. CCNc1ccccc1 | -1

Incoming: Record request — test call for CCCCC(CC)COC(=O)CCCCCCCCC(=O)OCC(CC)CCCC (configuration not stated)
Outgoing: -1

Incoming: Okay, and O=C(CCCCCCCCc1cccnc1)N1CCC(C=C(c2ccccc2)c2ccccc2)CC1 ?
Outgoing: 1

---

# Tested on: 5-hydroxytryptamine receptor 2C (pig)
# procedure-text: NVS_GPCR_p5HT2C: NovaScreen (NVS) G Protein-Coupled Receptor Assay for pig Serotonin, 5-Hydroxytryptamine Receptor 2C (5HT2C) (AID 2283288)
Inconclusive results are not listed. Activity calls are given as the source filed them. How the source made its calls: active means hit-call score of the fitted dose curve at least 0.9, where 1 is the maximum; inconclusive means response in the unintended direction; inactive means score below 0.9.
Hi there, use one of these labels in your reply, thanks! active, inactive

The examples below pair each entry with its known result.
1. CC(C)(O)c1coc(S(=O)(=O)NC(=O)Nc2c3c(cc4c2CCC4)CCC3)c1 | active
2. Cc1[nH]cnc1C[C@H]1CCc2c(C)c3ccccc3n2C1=O | active
3. O=P(OC(CCl)CCl)(OC(CCl)CCl)OC(CCl)CCl | inactive
4. COc1cccc(-c2ccc(/C=C\CN3CCCCCC3)cc2Cl)c1 | active
5. O=C(O)CC(O)C(=O)O (stereo not drawn) | inactive

Incoming: How did this test come out for CCOC(=O)COc1ccc2c(c1)CC(NCC(O)c1cccc(Cl)c1)CC2 (stereo not drawn) ?
Outgoing: active

Incoming: // query: CCOC(=O)c1ccc(C2CCC(NC[C@H](O)COc3ccc(O)c(NS(C)(=O)=O)c3)CC2)cc1 (stereo partly drawn)
Outgoing: active

Incoming: Consider next the compound Oc1ccc2c(c1)-c1ccccc1C2 in the same way.
Outgoing: active

---

# procedure-text: BSK_CASM3C_SRB: Viability Assessment in the BioMAP Diversity Plus: CASM3C Assay (AID 2283050);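 note: total protein by SRB staining as cytotoxicity measure in parallel cultures; cells exposed to compound for 24 h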
# condition-set: primary human coronary artery smooth muscle cells
The source made the active and inactive calls. Rule for the calls: active = hit-call score of the fitted dose curve at least 0.9, where 1 is the maximum; inactive = score below 0.9.
Hello, when you answer, please use one of the following outcomes: 1 (yes) for active, 0 (no) for inactive

Past entries and their recorded results:
1. CCOc1cccc(-n2cc(C(=O)N3CCN(c4cc(C(=O)O)c5ccccc5c4)CC3)nc2-c2ccc(C)cc2)c1 | 0 (no)
2. COC(=O)c1c(Cl)c(Cl)c(C(=O)OC)c(Cl)c1Cl | 0 (no)
3. CC(C)=CCCC(C)=CC=O | 0 (no)
4. Cc1ccc(S(=O)(=O)O)cc1C | 0 (no)
5. CCC(C)(C)C(=O)O[C@H]1C[C@@H](C)C=C2C=C[C@H](C)[C@H](CC[C@@H]3C[C@@H](O)CC(=O)O3)[C@H]21 | 1 (yes)
6. On1ccccc1=S | 1 (yes)
7. Cn1c(=O)cc(Oc2ccc(F)cc2F)c2cnc(NCC(C)(C)O)nc21 | 0 (no)
8. Nc1cccc(N)c1 | 0 (no)

Incoming: Assay outcome for CC(C)(O)c1coc(S(=O)(=O)NC(=O)Nc2c3c(cc4c2CCC4)CCC3)c1 : what was it?
Outgoing: 0 (no)

---

# Read-out: Cytochrome P450 (CYP2B6), CYP2B6 (gene 1555)
# procedure-text: LTEA_HepaRG_CYP2B6: Life Technologies and Expression Analysis (LTEA) Assay for Cytochrome P450 (CYP2B6) using HepaRG (AID 2283481)
# condition-set: mRNA level, 48 h; actives raise or lower the signal
Calls of active or inactive are those of the source. Rule for the calls: active = hit-call score of the fitted dose curve at least 0.9, where 1 is the maximum; inactive = score below 0.9.
Return exactly one item of 1 = active, -1 = inactive

1. COCCOc1cc2cc(C(=O)NC3CCN(C(C)C)CC3)n(CC(=O)Nc3ccc(Cl)cn3)c2cn1 | 1
2. CC[C@H]1OC(=O)[C@H](C)[C@@H](O[C@H]2C[C@@](C)(OC)[C@@H](O)[C@H](C)O2)[C@H](C)[C@@H](O[C@@H]2O[C@H](C)C[C@H](N(C)C)[C@H]2O)[C@](C)(O)C[C@@H](C)C(=O)[C@H](C)[C@@H](O)[C@]1(C)O | 1
3. O=C(O)CC(O)C(=O)O (stereo not given) | -1
4. Cc1ccc(S(=O)(=O)O)cc1C | -1
5. C=CC(=C)CCC=C(C)C | -1

Incoming: Short answer needed: outcome of this test for CC(O)CN(CCN(CC(C)O)CC(C)O)CC(C)O (stereo not given) ?
Outgoing: -1

Incoming: Query CC(C)CCO next
Outgoing: -1

Incoming: Let us now turn to Nc1nc2ncc(CNc3ccc(C(=O)N[C@@H](CCC(=O)O)C(=O)O)cc3)nc2c(=O)[nH]1
Outgoing: -1

Incoming: Try Clc1nc(Cl)c(Cl)c(Cl)c1Cl next.
Outgoing: -1

Incoming: Similarly, COc1ccc(/C=C/S(=O)(=O)NC(=O)c2ccc(C)cc2Cl)cc1 ?
Outgoing: 1

Incoming: For O=c1n(CC2CO2)c(=O)n(CC2CO2)c(=O)n1CC1CO1 (stereo not given) then?
Outgoing: -1

Incoming: C1=CCCC=CCCC=CCC1 ?
Outgoing: -1

Incoming: Another compound to check: CC(C)=CCCC(C)CCO (stereo not given)
Outgoing: 1

Incoming: Let us now turn to COC(=O)c1c(Cl)c(Cl)c(C(=O)OC)c(Cl)c1Cl
Outgoing: -1

Incoming: # iterate: CCOC(=O)CC(CC(=O)OCC)(OC(C)=O)C(=O)OCC
Outgoing: -1

Incoming: Follow-up entry: Cn1c(=O)cc(Oc2ccc(F)cc2F)c2cnc(NCC(C)(C)O)nc21
Outgoing: 1

Incoming: // repeat for CC(=O)c1ccc2c(c1)[C@H](NC(=O)c1ccc(F)cc1)[C@@H](O)C(C)(C)O2 and report
Outgoing: 1

Incoming: Also need On1ccccc1=S , thanks.
Outgoing: -1

Incoming: Queued: CC(C)(O)c1coc(S(=O)(=O)NC(=O)Nc2c3c(cc4c2CCC4)CCC3)c1
Outgoing: 1

Incoming: One more compound: C=CCCCCCCCCC(=O)O
Outgoing: -1

Incoming: Let us now turn to Fc1ccccc1[C@@H](F)COC1CCC(Nc2ncnc3[nH]ncc23)CC1 (stereo not given in full)
Outgoing: 1

Incoming: Further, for Cc1ccc(N)cc1O ?
Outgoing: -1

Incoming: // repeat for CC(=O)OCCC(C)C and report
Outgoing: -1

Values from PubChem BioAssay (EPA / NIEHS)
